system: Ps. aeruginosa clinical isolates; assay: Broth microdilution MIC, clinical isolate strains (NAUTICA); assay type: cell-based; details: Table 4B; each table row is one clinical isolate; unit assumed
MEASUREMENT_LABEL: MIC, PS. AER

Examples with their reported MIC, PS. AER follow.
Incoming: Any idea what its MIC, PS. AER is? The compound is O=C(O)c1sc(-c2ccc(F)cc2)cc1-c1nnn[nH]1
Outgoing: > 16 µg/mL

Incoming: Would you kindly repeat that for Cn1nnnc1-c1cc(-c2ccc(F)cc2)sc1-c1ccc(F)cc1 ?
Outgoing: > 16 µg/mL

Incoming: Input Cn1nnc(-c2cc(-c3ccc(F)cc3)sc2-c2ccc(F)cc2)n1
Outgoing: > 16 µg/mL

Incoming: Next: Cn1nnnc1-c1cc(-c2ccc(F)cc2)sc1C(=O)O
Outgoing: > 8 µg/mL

Incoming: Check CCOC(=O)c1cc(-c2nnn(C)n2)c(-c2ccc(F)cc2)s1 too.
Outgoing: > 16 µg/mL

Incoming: Then what about the compound Cn1nnc(-c2cc(-c3ccc(F)cc3)sc2C(=O)O)n1 ?
Outgoing: > 16 µg/mL

Incoming: Let us now turn to COC(=O)c1sc(-c2ccc(F)cc2)cc1-c1nnnn1C
Outgoing: > 4 µg/mL

Incoming: How about COC(=O)c1sc(-c2ccc(F)cc2)cc1-c1nnn(C)n1 ?
Outgoing: > 8 µg/mL

***
Incoming: Any idea what its MIC, PS. AER is? The compound is Fc1ccc(-c2cc(-c3nnn[nH]3)c(-c3ccc(F)cc3)s2)cc1
Outgoing: > 32 µg/mL

###

system: MRSA ATCC 33591; test: Broth microdilution MIC, ATCC strains; type: cell-based; conditions: Staphylococcus aureus; MRSA ATCC 33591; read-out: MIC (growth inhibition, microdilution method)
Recorded measurements of MIC, one per entry

Some entries whose results are on file:
Incoming: Value lookup for MIC; key = Cn1nnnc1-c1cc(C(=O)O)sc1C(=O)O [DNM-113]
Outgoing: 64 µg/mL

Incoming: And what about the molecule CCOC(=O)c1cc(-c2nnn[nH]2)c(-c2ccc(F)cc2)s1 [DNM-124] ?
Outgoing: > 64 µg/mL

Incoming: Quick one: O=C(O)c1cc(-c2nn[nH]n2)cs1 [DNM-116]
Outgoing: > 32 µg/mL

Incoming: Follow-up item: COC(=O)c1sc(-c2ccc(F)cc2)cc1-c1nnn(C)n1 [DNM-144]
Outgoing: > 8 µg/mL

Incoming: Next molecule: Cn1nnnc1-c1cc(-c2ccc(F)cc2)sc1-c1ccc(F)cc1 [DNM-133]
Outgoing: > 16 µg/mL

Incoming: Can you handle COC(=O)c1cc(-c2nnnn2C)c(C(=O)OC)s1 [DNM-115] next?
Outgoing: > 16 µg/mL

Incoming: Try this molecule too: COC(=O)c1cc(-c2nnn(C)n2)c(C(=O)OC)s1 [DNM-114]
Outgoing: 256 µg/mL

Incoming: And then CCOC(=O)c1cc(-c2nnn(C)n2)c(-c2ccc(F)cc2)s1 [DNM-125] , what is it?
Outgoing: > 16 µg/mL

Incoming: Okay, and COC(=O)c1sc(-c2ccc(F)cc2)cc1-c1nnnn1C [DNM-145] ?
Outgoing: > 4 µg/mL

Continuing:
Incoming: Can you share its MIC? I mean this molecule: Fc1ccc(-c2cc(-c3nnn[nH]3)c(-c3ccc(F)cc3)s2)cc1 [DNM-131]
Outgoing: > 32 µg/mL
